Test system: A549
Assay: Antiproliferative activity against human A549 cells after 72 hrs by MTS assay
Assay type: functional, cell-based
Details: A549, 72 h
readout-type: IC50 (µM)
Answer in µM, number only, no unit symbol.

Record summary for COc1ccc2c(c1OC)C(=O)O[C@@H]2[C@H]1c2c(c(-c3ccc(C(F)(F)F)cc3)c3c(c2OC)OCO3)CCN1C : reported IC50 = 57.3

Record summary for C=Cc1ccc(-c2c3c(c(OC)c4c2OCO4)[C@H]([C@H]2OC(=O)c4c2ccc(OC)c4OC)N(C)CC3)cc1 : reported IC50 = 42.7

Record summary for COc1ccc2c(c1OC)C(=O)O[C@@H]2[C@H]1c2c(c(-c3cccc(NC(C)=O)c3)c3c(c2OC)OCO3)CCN1C : reported IC50 = 32.6

* * *

Assign IC50 to each entry below.
Tested on: A549
Assay: Antiproliferative activity against human A549 cells after 72 hrs by MTS assay
Type: functional, cell-based
Conditions: A549, 72 h
Answer in µM, number only, no unit symbol.

Record summary for CCOC(=O)c1cc(-c2c3c(c(OC)c4c2OCO4)[C@H]([C@H]2OC(=O)c4c2ccc(OC)c4OC)N(C)CC3)ccc1Cl : reported IC50 = 33.8

Record summary for COc1ccc2c(c1OC)C(=O)O[C@@H]2[C@H]1c2c(cc3c(c2OC)OCO3)CCN1C : reported IC50 = 62.9

Record summary for CCOC(=O)c1ccc(-c2c3c(c(OC)c4c2OCO4)[C@H]([C@H]2OC(=O)c4c2ccc(OC)c4OC)N(C)CC3)cc1 : reported IC50 = 53.1

Record summary for COc1ccc2c(c1OC)C(=O)O[C@@H]2[C@H]1c2c(c(-c3cccnc3)c3c(c2OC)OCO3)CCN1C : reported IC50 = 31.6

* * *

Tested on: HeLa
Assay: Antiproliferative activity against human HeLa cells after 72 hrs by MTS assay
Type: functional, cell-based
readout-type: IC50 (µM)
Answer in µM, number only, no unit symbol.

Record summary for C=Cc1ccc(-c2c3c(c(OC)c4c2OCO4)[C@H]([C@H]2OC(=O)c4c2ccc(OC)c4OC)N(C)CC3)cc1 : reported IC50 = 20.3

Record summary for CCOC(=O)c1ccc(-c2c3c(c(OC)c4c2OCO4)[C@H]([C@H]2OC(=O)c4c2ccc(OC)c4OC)N(C)CC3)cc1 : reported IC50 = 21.2

Record summary for CCOC(=O)c1cc(-c2c3c(c(OC)c4c2OCO4)[C@H]([C@H]2OC(=O)c4c2ccc(OC)c4OC)N(C)CC3)ccc1Cl : reported IC50 = 9

Record summary for COc1ccc2c(c1OC)C(=O)O[C@@H]2[C@H]1c2c(cc3c(c2OC)OCO3)CCN1C [NOSCAPINE] : reported IC50 = 24

Record summary for COc1ccc2c(c1OC)C(=O)O[C@@H]2[C@H]1c2c(c(-c3cccnc3)c3c(c2OC)OCO3)CCN1C : reported IC50 = 8.9

Record summary for COc1ccc2c(c1OC)C(=O)O[C@@H]2[C@H]1c2c(c(-c3cccc(NC(C)=O)c3)c3c(c2OC)OCO3)CCN1C : reported IC50 = 9.2

Record summary for COc1ccc2c(c1OC)C(=O)O[C@@H]2[C@H]1c2c(c(-c3ccc(C(F)(F)F)cc3)c3c(c2OC)OCO3)CCN1C : reported IC50 = 22.8
